These entries and their values trace back to patent US20180339041A1.

# Target under test: T1, C-terminally FLAG-tagged human Gas6 recombinant protein (hGas6-F) (human, UniProt Q14393 31-678, gamma-carboxylated glutamic acid residues in the Gla domain (producer cells co-express rat VKOR and human GGCX); positions not given)
# T1 construct: also called human Gas6-F; human Gas6 protein
# T1 sequence: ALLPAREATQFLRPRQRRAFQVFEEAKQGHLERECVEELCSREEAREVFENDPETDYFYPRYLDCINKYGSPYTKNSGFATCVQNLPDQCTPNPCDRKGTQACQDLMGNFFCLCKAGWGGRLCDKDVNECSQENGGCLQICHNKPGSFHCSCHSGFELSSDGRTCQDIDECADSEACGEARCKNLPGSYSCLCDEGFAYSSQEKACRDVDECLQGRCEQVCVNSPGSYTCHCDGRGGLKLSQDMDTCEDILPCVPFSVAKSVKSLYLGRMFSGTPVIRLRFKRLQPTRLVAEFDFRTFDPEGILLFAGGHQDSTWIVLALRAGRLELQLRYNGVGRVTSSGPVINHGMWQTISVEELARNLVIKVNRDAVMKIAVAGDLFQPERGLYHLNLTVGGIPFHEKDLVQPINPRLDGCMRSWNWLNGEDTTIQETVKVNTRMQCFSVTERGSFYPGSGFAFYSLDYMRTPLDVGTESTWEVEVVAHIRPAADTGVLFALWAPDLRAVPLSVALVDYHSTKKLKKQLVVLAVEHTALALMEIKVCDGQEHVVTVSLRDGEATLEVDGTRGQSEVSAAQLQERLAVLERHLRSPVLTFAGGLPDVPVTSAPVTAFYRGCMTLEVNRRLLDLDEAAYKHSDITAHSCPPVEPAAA
# Assay explanation: SPR Biacore T100, captured antibody, Gas6 analyte, first test
pKd: −log10 of the molar value.
Provide the reported pKd of each item.

Would you please look over these solved cases?
[[record]]
binder = "hzKM5321 LV3HV7 antibody (antibody, V domains shown, Humanized; variant human IgG4 constant region (EU S228P, L235E, R409K), human kappa; also called B-16; LV3HV7) VH: QIHLVQSGPELKKPGASVKISCKASGYTFTNYGMNWVKQAPGQGLKWMGWINTNTGEPTYTEEFKGRFVFSLDTSVTTAYLQISTLKAEDTATYFCARDEGWFVYWGQGTLITVSS VL: ETTLTQSPSSLSASTGDRVTITCITSTDIDDDMNWYQQKPGKAPKLLISEGNTLRPGVPSRFSGSGSGTDFTLTISSTQPEDFADYYCLQTDSVPLTFGQGTKVEIK"
value = "> 8.15"

[[record]]
binder = "hzKM5320 LV1aHV0 antibody (antibody, V domains shown, Humanized; variant human IgG4 constant region (EU S228P, L235E, R409K), human kappa; also called A-03) VH: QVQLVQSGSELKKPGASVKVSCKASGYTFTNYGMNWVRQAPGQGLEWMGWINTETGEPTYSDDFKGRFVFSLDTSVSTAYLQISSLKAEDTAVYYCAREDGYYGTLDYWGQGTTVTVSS VL: DVVMTQSPDSLAVSLGERVTINCKASQSVSNDVAWYQQKPGQSPKLLIYYASNRYTGVPDRFSGSGSGTDFTLTISSLQAEDVAVYFCQQDYSSPWTFGQGTKLEIK"
value = "> 7.90"

[[record]]
binder = "hzKM5321 LV0HV0 antibody (antibody, V domains shown, Humanized; variant human IgG4 constant region (EU S228P, L235E, R409K), human kappa; also called B-02; LV0HV0) VH: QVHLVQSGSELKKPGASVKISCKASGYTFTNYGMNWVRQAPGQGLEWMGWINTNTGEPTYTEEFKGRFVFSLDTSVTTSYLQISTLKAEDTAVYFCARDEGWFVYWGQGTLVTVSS VL: ETTLTQSPSSLSASVGDRVTITCITSTDIDDDMNWYQQKPGKAPKLLISEGNTLRPGVPSRFSGSGSGTDFTLTISSLQPEDFATYYCLQTDSVPLTFGQGTKVEIK"
value = "> 8.45"


Quick batch: pKd for everything below.
1. hzKM5321 LV6HV4b antibody (antibody, V domains shown, Humanized; variant human IgG4 constant region (EU S228P, L235E, R409K), human kappa; also called B-28; LV6HV4b) VH: QVHLVQSGPELKKPGASVKISCKASGYTFTNYGMNWVKQAPGQGLKWMGWINTNTGEPTYTEEFKGRFVFSLDTSVTTSYLQISTLKAEDTATYFCARDEGWFVYWGQGTLVTVSS VL: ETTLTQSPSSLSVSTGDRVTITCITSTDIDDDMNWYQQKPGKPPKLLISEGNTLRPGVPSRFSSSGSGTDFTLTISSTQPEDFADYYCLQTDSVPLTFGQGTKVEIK
2. hzKM5320 LV5HV2 antibody (antibody, V domains shown, Humanized; variant human IgG4 constant region (EU S228P, L235E, R409K), human kappa; also called kzKM5320 LV5HV2; A-20) VH: QVQLVQSGSELKKPGASVKVSCKASGYTFTNYGMNWVRQAPGQGLEWMGWINTETGEPTYSDDFKGRFVFSLDTSVSTAYLQISSLKAEDTATYFCAREDGYYGTLDYWGQGTTVTVSS VL: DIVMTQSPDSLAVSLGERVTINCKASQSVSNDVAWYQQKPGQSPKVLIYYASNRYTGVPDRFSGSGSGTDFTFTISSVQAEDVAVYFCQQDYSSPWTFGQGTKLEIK

1. > 8.72
2. > 8.67
